B1: MNAT1 (parent)
chain: LAPIHKLEEALYEYQPLQIETYGP

Variants of: B1
Assay Info: protein stability index of a GFP-peptide fusion (GPS, HEK-293T) (PSI 1-6); higher = more stable;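 further: lentivirally expressed fusions sorted by FACS into six bins by GFP to DsRed ratio, PSI derived from sequencing read proportions per bin multiplied by bin number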
Test Conditions: c terminus: a fixed tail appended
Give measured protein stability index for each item. Keep answers brief.
Numbers only.

Example results:
In [3]: df
Out[3]:
   mutant_id             test_readout  value_measured
0       L17Y  protein stability index            2.59
1        E9V  protein stability index            3.14
2       Q18P  protein stability index            2.76
3        P3N  protein stability index            1.32
4        L1K  protein stability index            2.33

Provide the reported protein stability index of each entry below, same order.
1. P16T
2. P24Y
3. I19T

1: 1.96; 2: 2.37; 3: 2.61

Give one value of protein stability index per listed variant.
1. E8Q
2. L7A

1. 2.05
2. 3.44

Provide protein stability index for all items below, preserving their order.
1. Y14Q
2. P16G

1: 2.87; 2: 2.35

For each of the variants below, note its protein stability index.
1. P3R
2. Y12F

[2.1, 1.19]

Hi there! I need protein stability index for each item below, if you can.
1. Q15E
2. E9H
3. I4A

[2.36, 2.15, 2.95]

Provide reported protein stability index for each item, in the same order as listed.
1. L7G
2. P24S
3. L17E
4. Y22E
5. L11V
6. A2M
7. L1N
8. P16N

[2.81, 2.35, 3.63, 3.19, 2.9, 1.63, 2.79, 2.94]

Please state, for each entry, its recorded protein stability index.
1. A2Y
2. A10N
3. T21Q
4. Y12H
5. L17H
6. E20M

1. 1.9
2. 2.69
3. 1.57
4. 1.54
5. 3.03
6. 1.47

Please look at the items below and tell me protein stability index for each one, in order.
1. Y12N
2. E8R
3. T21M
4. I19F

3.07
2.26
3.53
1.85

Hello, the source for this data is the supplement of paper PMC10567573, in case you need it.
